Below, each entry is listed with its recorded ratio over background.
Biological target: T1, soluble IGF-1R (recombinant human IGF-1R extracellular domain, R&D Systems Cat. # 391-GR/CF) (human, UniProt P08069 31-935)
T1 construct: extracellular domain; Bought protein; coated on plates (phage ELISA, TRF) or Eu-labelled (TR-FRET); also called sIGF-1R; rhIGF-1R
Test: phage ELISA
ASSAY_METRIC: ratio over background (ratio)

>  <BINDER>
QGGSASFYDAIDRLLRMRIGG (on phage) [20E2A-4-F11-IGFR]

>  <OBSERVED_MEASUREMENT>
18.8

$$$$
>  <BINDER>
TSEVQRRSQDNFYDWFVAQVA (on phage) [A6S-3-E2-IR]

>  <OBSERVED_MEASUREMENT>
24.7

$$$$
>  <BINDER>
PAGPCGFYCGLGLLLHGDQSP (on phage) [20E2B-4-H8-IGFR]

>  <OBSERVED_MEASUREMENT>
5.3

$$$$
>  <BINDER>
QGNVLDFYGWIGRLLAKQGSD (on phage) [20E2B-3-D12-IGFR]

>  <OBSERVED_MEASUREMENT>
6.2

$$$$
>  <BINDER>
APDPSDFQEIFYDWFVRQVSRMPGGG (on phage) [H2CA-1-A3-IGFR]

>  <OBSERVED_MEASUREMENT>
3.8

$$$$
>  <BINDER>
SAAQLFFQESFYDWFLRQVAESSQPN (on phage) [H2CA-4-F11-IGFR]

>  <OBSERVED_MEASUREMENT>
6.8

$$$$
>  <BINDER>
ICTGQGFYQVLCGLLRGTSAR (on phage) [20E2B-2-B3-IGFR]

>  <OBSERVED_MEASUREMENT>
5.3

$$$$
>  <BINDER>
AVRATRFDEAFYDWFVRQISDGQGNK (on phage) [H2CA-4-F6-IGFR]

>  <OBSERVED_MEASUREMENT>
7.3

$$$$
>  <BINDER>
GGTEVDFYRALERLVRGQLGL (on phage) [20E2B-3-D8-IGFR]

>  <OBSERVED_MEASUREMENT>
17.7

$$$$
>  <BINDER>
YSCGDGFYSLLSDLLGGQFRC (on phage) [20E22-4-H12-IGFR]

>  <OBSERVED_MEASUREMENT>
9.7

$$$$
>  <BINDER>
MMVVDGFYDALHQLVVAQSLG (on phage) [20E2A-3-D10-IGFR]

>  <OBSERVED_MEASUREMENT>
6.9

$$$$
>  <BINDER>
SSCDGAGHESFYEWFVRQVSGCRSV (on phage) [H2CA-3-C6-IGFR]

>  <OBSERVED_MEASUREMENT>
5.6

$$$$
>  <BINDER>
GCEVIVEEGDSADPFYHKLSELCQGS (on phage) [B6Hα-2-D1-IR]

>  <OBSERVED_MEASUREMENT>
5.4

$$$$
>  <BINDER>
RQGTGSFYLMLEQLLVGARGP (on phage) [20E2B-4-G11-IGFR]

>  <OBSERVED_MEASUREMENT>
4.5

$$$$
>  <BINDER>
RFSTDGFYQYLLALVGGGPVG (on phage) [20E2B-1-A11-IGFR]

>  <OBSERVED_MEASUREMENT>
9.5

$$$$
>  <BINDER>
PVGVQGFYEGLSRLVLGRGGW (on phage) [20E2B-4-F8-IGFR]

>  <OBSERVED_MEASUREMENT>
7.3

$$$$
>  <BINDER>
IIGGFYSYFNSVLRLGT (on phage) [NNRPγ-4-A1-IR]

>  <OBSERVED_MEASUREMENT>
10.9

$$$$
>  <BINDER>
LRIANLFYQRLWDLAFGGGG (on phage) [20E2B-3-E8-IGFR]

>  <OBSERVED_MEASUREMENT>
16.7

$$$$
>  <BINDER>
QSPVGSSHEDFYDWFFRQVAQSGAHQ (on phage) [H2CA-3-D6-IGFR]

>  <OBSERVED_MEASUREMENT>
9

$$$$
>  <BINDER>
LSSDGQFYRALNLLLQGSAGR (on phage) [20E2B-2-B7-IGFR]

>  <OBSERVED_MEASUREMENT>
6.1

$$$$
>  <BINDER>
GCAVVEEAERSRGDPFYHKLSELIQGC (on phage) [B6Hα-3-E7-IR]

>  <OBSERVED_MEASUREMENT>
5.6

$$$$
